Recorded MCP-1 at 24 h for the following compounds
Tested on: MCP-1
Test: In vivo tolerability by IV: serum MCP-1 by Luminex
Design: species or system C57BL/6J mice
Details: Formulation No. 001, RNA No. 331, male C57BL/6J mice, 1.0 mg*kg/1 intravenous, 24 hours post injection
Note: unit pg/mL is implicit; provide only the numeric part.

* CCCCCCCCCCCOC(=O)CCCCCOC(=O)C(COC(=O)NCCN1CCCCCC1)NC(=O)OCCCCCCCCOC(=O)C(CCCCCC)CCCCCCCC (stereo not drawn) | 207
* CCCCCCCCCC(=O)OCCCCCCCOC(=O)C(COC(=O)NCCN1CCCCCC1)NC(=O)OCCCCCCCCOC(=O)C(CCCCCC)CCCCCCCC (stereo not drawn) | 229

Moving on to another compound below.
// returns reported MCP-1 at 24 h for input CCCCCCCCC(CCCCCC)C(=O)OCCCCCCCCOC(=O)NC(COC(=O)NCCN(C)C)C(=O)OCCCCCCCCOC(=O)C(CCCCCC)CCCCCCCC (stereo not drawn)
220

###

Assay: LNP size and polydispersity index (PDI) by dynamic light scattering (Zetasizer)
Type: physicochemical
Details: Formulation No. 001, RNA No. 331
parameter: Size (nm)
Expressed in nm, but write only the number.

* CCCCC/C=C\C/C=C\CCCCCCCC(=O)NC(COC(=O)NCCN1CCCCCC1)C(=O)OCCCCCCCC(=O)OC(CCCCCCCC)CCCCCCCC (stereo not shown) | 72.66
* CCCCC/C=C\C/C=C\CCCCCCCC(=O)N[C@@H](COC(=O)NCCN1CCCCCC1)C(=O)OCCCCCCCC(=O)OC(CCCCCCCC)CCCCCCCC | 76.34
* CCCCC/C=C\C/C=C\CCCCCCCC(=O)N[C@@H](COC(=O)NCCN1CCCCC1)C(=O)OCCCCCCCC(=O)OC(CCCCCCCC)CCCCCCCC | 80.16

What does the record list as Size for CCCCC/C=C\C/C=C\CCCCCCCC(=O)NC(COC(=O)NCCN1CCCCC1)C(=O)OCCCCCC(=O)OCC(CCCCCCCC)CCCCCCCCCC (stereo not shown) ?
65.33

Look up Size for this compound: CCCCC/C=C\C/C=C\CCCCCCCC(=O)NC(COC(=O)NCCN1CCCCC1)C(=O)OCCCCCCCC(=O)OC(CCCCCCCC)CCCCCCCC (stereo not shown)
61.34

For the compound "CCCCC/C=C\C/C=C\CCCCCCCC(=O)N[C@H](COC(=O)NCCN1CCCCCC1)C(=O)OCCCCCC(=O)OC(CCCCCCCC)CCCCCCCC" , what Size is on record?
76.53

Looking for the measured Size of CCCCCCCC/C=C\CCCCCCCC(=O)NC(COC(=O)NCCN1CCCCCC1)C(=O)OCCCCCCCCOC(=O)C(CCCCCC)CCCCCCCC (stereo not shown) , can you help?
76.05

###

Tested on: MCP-1
Assay: In vivo tolerability by IV: serum MCP-1 by Luminex
Design: species or system C57BL/6J mice
Details: Formulation No. 001, RNA No. 331, male C57BL/6J mice, 1.0 mg*kg/1 intravenous, 24 hours post injection
parameter: MCP-1 at 24 h (pg/mL)
Only the number, expressed in pg/mL, is required.

Answered examples (3):
- CCCCC/C=C\C/C=C\CCCCCCCCOC(=O)NC(COC(=O)NCCN1CCCCCC1)C(=O)OCCCCCC(=O)OCCCCCCCCCCC (centres unmarked) [Lipid 939]: 956
- CCCCCCCCCCCOC(=O)CCCCCOC(=O)C(COC(=O)NCCN1CCCCC1)NC(=O)OCCCCCCCCOC(=O)C(CCCCCC)CCCCCCCC (centres unmarked) [Lipid 923]: 75
- CCCCC/C=C\C/C=C\CCCCCCCCOC(=O)NC(COC(=O)NCCNC)C(=O)OCCCCCC(=O)OCC(CCCCCCCC)CCCCCCCCCC (centres unmarked) [Lipid 907]: 81.5

For the molecule CCCCCCCCC(CCCCCC)C(=O)OCCCCCCCCOC(=O)NC(COC(=O)NCCN1CCCCCC1)C(=O)OCCCCCCCCCCC(=O)OCCCCCC (centres unmarked) [Lipid 929] , what MCP-1 at 24 h is on record?
58.6

Reported MCP-1 at 24 h, molecule CCCCC/C=C\C/C=C\CCCCCCCCOC(=O)C(COC(=O)NCCN1CCCCC1)NC(=O)OCCCCCCCCOC(=O)C(CCCCCC)CCCCCCCC (centres unmarked) [Lipid 918] : ____
300

Query: MCP-1 at 24 h; subject: CCCCCCCCC(CCCCCC)C(=O)OCCCCCCCCOC(=O)NC(COC(=O)NCCN1CCCCC1)C(=O)OCCCCCCCCOC(=O)C(CCCCCC)CCCCCCCC (centres unmarked) [Lipid 888]
206

Sample CCCCC/C=C\C/C=C\CCCCCCCCOC(=O)NC(COC(=O)NCCN1CCCCCC1)C(=O)OCCCCCCCCOC(=O)C(CCCCCC)CCCCCCCC (centres unmarked) [Lipid 881] — what was its MCP-1 at 24 h?
253

Which MCP-1 at 24 h is reported for this molecule? CCCCC/C=C\C/C=C\CCCCCCCCOC(=O)NC(COC(=O)NCCN1CCCCCC1)C(=O)OCCCCCCCC(=O)OC(CCCCCCCC)CCCCCCCC (centres unmarked) [Lipid 858]
111

If you can, please state the reported MCP-1 at 24 h value of CCCCC/C=C\CCOC(=O)CCCCCOC(=O)C(COC(=O)NCCN1CCCCC1)NC(=O)OCCCCCCCCOC(=O)C(CCCCCC)CCCCCCCC (centres unmarked) [Lipid 954] .
789

Given the entry CCCCCCCC/C=C\CCCCCCCC(=O)NC(COC(=O)NCCN1CCCCC1)C(=O)OCCCCCCCC(=O)OC(CCCCCCCC)CCCCCCCC (centres unmarked) [Lipid 736] , report its measured MCP-1 at 24 h.
260

Entry CCCCC/C=C\CCOC(=O)CCCCCOC(=O)C(COC(=O)NCCN1CCCCCC1)NC(=O)OCCCCCCCCOC(=O)C(CCCCCC)CCCCCCCC (centres unmarked) [Lipid 955] has what MCP-1 at 24 h?
580

###

Test system: Balb/c mice
Experiment: In vivo expression by IV, 0.05 mg/kg luciferase RNA-LNPs, IVIS luminescence
Settings: Formulation No. 010, RNA No. 331; female Balb/c mice, 0.05 mg*kg−1 intravenous, 24 hours post injection
# Lookup of reported Whole body at 24 h (p/s) (Mean) keyed by entry
Return type: number; implicit unit p/s.

# count of solved cases: 5
- CCCCCCCC/C=C\CCCCCCCC(=O)NC(COC(=O)NCCN1CCCCCC1)C(=O)OCCCCCCCCOC(=O)C(CCCCCC)CCCCCCCC (stereo not drawn) [Lipid 701]: 4.00E+08
- CCCCC/C=C\C/C=C\CCCCCCCC(=O)N[C@H](COC(=O)NCCN1CCCCCC1)C(=O)OCCCCCC(=O)OC(CCCCCCCC)CCCCCCCC [Lipid 730]: 2.24E+08
- CCCCC/C=C\C/C=C\CCCCCCCC(=O)N[C@@H](COC(=O)NCCN1CCCCCC1)C(=O)OCCCCCCCC(=O)OC(CCCCCCCC)CCCCCCCC [Lipid 602]: 2.66E+08
- CCCCC/C=C\C/C=C\CCCCCCCC(=O)NC(COC(=O)NCCN1CCCCCC1)C(=O)OCCCCCC(=O)OCC(CCCCCCCC)CCCCCCCCCC (stereo not drawn) [Lipid 729]: 1.86E+08
- CCCCCCCC/C=C\CCCCCCCC(=O)NC(COC(=O)NCCN1CCCCC1)C(=O)OCCCCCCCCOC(=O)C(CCCCCC)CCCCCCCC (stereo not drawn) [Lipid 700]: 3.40E+08

Hi! What's the reported Whole body at 24 h (p/s) (Mean) for CCCCC/C=C\C/C=C\CCCCCCCC(=O)NC(COC(=O)NCCN1CCCCC1)C(=O)OCCCCCCCC(=O)OC(CCCCCCCC)CCCCCCCC (stereo not drawn) [Lipid 549] on Balb/c mice?
2.75E+08

Recall the recorded Whole body at 24 h (p/s) (Mean) for CCCCC/C=C\C/C=C\CCCCCCCC(=O)NC(COC(=O)NCCN1CCCCCC1)C(=O)OCCCCCCCC(=O)OC(CCCCCCCC)CCCCCCCC (stereo not drawn) [Lipid 550] with Balb/c mice and state it.
2.36E+08

// map CCCCC/C=C\C/C=C\CCCCCCCC(=O)NC(COC(=O)NCCN1CCCCC1)C(=O)OCCCCCC(=O)OCC(CCCCCCCC)CCCCCCCCCC (stereo not drawn) [Lipid 728] to recorded Whole body at 24 h (p/s) (Mean) (system: Balb/c mice)
1.86E+08

Any idea what Whole body at 24 h (p/s) (Mean) came out for CCCCC/C=C\C/C=C\CCCCCCCC(=O)N[C@@H](COC(=O)NCCN1CCCCC1)C(=O)OCCCCCCCC(=O)OC(CCCCCCCC)CCCCCCCC [Lipid 601] on Balb/c mice?
3.82E+08
